Cited source for all entries: patent US11331314B2

target: human V1a receptor (Homo sapiens); assay: Cellular in vitro assay for determining vasopressin receptor activity, V1a receptor cell line (photoprotein luminescence); settings: CHO cell line transfected with the human V1a receptor; agonist [Arg8]-vasopressin at EC50 concentration; read-out: IC50 hV1a
Sequence (P37288 whole entry): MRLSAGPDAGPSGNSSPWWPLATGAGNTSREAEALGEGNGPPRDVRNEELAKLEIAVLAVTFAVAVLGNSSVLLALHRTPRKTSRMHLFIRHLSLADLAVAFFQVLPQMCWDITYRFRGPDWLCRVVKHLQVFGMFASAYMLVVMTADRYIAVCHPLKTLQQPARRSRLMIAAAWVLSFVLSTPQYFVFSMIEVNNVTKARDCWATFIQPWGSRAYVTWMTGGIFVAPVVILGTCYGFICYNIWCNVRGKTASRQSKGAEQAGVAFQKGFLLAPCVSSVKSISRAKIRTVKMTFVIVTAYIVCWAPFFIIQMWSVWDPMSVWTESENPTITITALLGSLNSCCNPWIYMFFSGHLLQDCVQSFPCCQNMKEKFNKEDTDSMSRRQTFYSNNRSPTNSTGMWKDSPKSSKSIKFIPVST
VALUE_TYPE: IC50 (nM)

Use these answered entries as a reference point.
- COMPOUND: "CC1(CNc2nc(Cn3nc(-c4ccc(Cl)cc4)n(C[C@H](O)C(F)(F)F)c3=O)nn2-c2ccccc2Cl)COC1 [Example 78]"
  IC50 (nM): 0.79
- COMPOUND: "NC(=O)[C@@H]1CC(F)(F)CN1c1nc(Cn2nc(-c3ccc(Cl)cc3)n(C[C@H](O)C(F)(F)F)c2=O)nn1-c1ccccc1Cl [Example 9]"
  IC50 (nM): 0.89
- COMPOUND: "O=c1n(Cc2nc(NCC3(O)CCNCC3)n(-c3ccccc3Cl)n2)nc(-c2ccc(Cl)cc2)n1C[C@H](O)C(F)(F)F [Example 22]"
  IC50 (nM): 0.46
- COMPOUND: "O=c1n(Cc2nc(N3CCNC(C(F)(F)F)C3)n(-c3ccccc3Cl)n2)nc(-c2ccc(Cl)cc2)n1C[C@H](O)C(F)(F)F (single isomer, unassigned) [Example 68]"
  IC50 (nM): 0.45
- COMPOUND: "CC1(C)CN(c2nc(Cn3nc(-c4ccc(Cl)cc4)n(C[C@H](O)C(F)(F)F)c3=O)nn2-c2ncccc2Cl)CCN1 [Example 122]"
  IC50 (nM): 0.97

(a) CC(C)(N)CNc1nc(Cn2nc(-c3ccc(Cl)cc3)n(C[C@H](O)C(F)(F)F)c2=O)nn1-c1ccccc1F [Example 91]
(b) O=c1n(Cc2nc(N3CCCC3)n(-c3cccc(F)c3)n2)nc(-c2ccc(Cl)cc2)n1C[C@H](O)C(F)(F)F [Example 88]
(c) O=C1CC[C@H](CNc2nc(Cn3nc(-c4ccc(Cl)cc4)n(C[C@H](O)C(F)(F)F)c3=O)nn2CCC(F)(F)F)N1 [Example 101]
Descending sort on IC50 required. # answer = labels listed in requested order
c, b, a

(a) O=C1CCC(Nc2nc(Cn3nc(-c4ccc(Cl)cc4)n(C[C@H](O)C(F)(F)F)c3=O)nn2CCC(F)(F)F)CN1 (mixture of isomers) [Example 99]
(b) O=c1n(Cc2nc(N3CCOC(C(F)(F)F)C3)n(-c3ccccc3Cl)n2)nc(-c2ccc(Cl)cc2)n1C[C@H](O)C(F)(F)F (mixture of isomers) [Example 77]
(c) O=c1n(Cc2nc(N3CCOCC3)n(-c3ccccc3Cl)n2)nc(-c2ccc(Cl)cc2)n1C[C@H](O)C(F)(F)F [Example 83]
Highest IC50 first, then in falling order down to the smallest. A complete answer lists every label in the requested sequence.
a, b, c
(a: 10.2 nM, b: 1.5 nM, c: 0.56 nM)
